Tested On: cloned human B1 bradykinin receptor in transiently transfected COS-7 cells (COS 33E9) (Homo sapiens, UniProt P46663)
Construct: the full-length open reading frame of the B1 DNA (encoding a protein of about 40.4 kDa =about base 209 to about base 1267); expressed in transfected cells; host or cells: COS-7 cells, transient electroporation of clone 33E9 (pcDNA3 library vector)
Sequence (P46663 whole entry): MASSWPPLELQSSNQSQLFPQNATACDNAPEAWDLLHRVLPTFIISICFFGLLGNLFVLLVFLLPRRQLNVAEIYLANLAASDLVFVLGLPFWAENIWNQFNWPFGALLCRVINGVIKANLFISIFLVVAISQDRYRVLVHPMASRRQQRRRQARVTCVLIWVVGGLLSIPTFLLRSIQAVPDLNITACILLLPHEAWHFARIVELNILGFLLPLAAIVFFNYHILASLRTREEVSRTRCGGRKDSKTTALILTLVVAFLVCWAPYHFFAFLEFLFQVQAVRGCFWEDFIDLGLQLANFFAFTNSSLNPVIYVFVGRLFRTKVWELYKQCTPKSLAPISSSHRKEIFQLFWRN
Test Details: Displacement of 1 nM [3H]des-Arg10kallidin, membrane binding assay, COS 33E9
Test Parameters: displacement of 1 nM [3H]des-Arg10kallidin; membranes of transiently transfected COS-7 cells; read-out: IC50, COS 33E9
Endpoint Name: IC50

Molecule | Endpoint Name | Reading
CC[C@H](C)[C@H](NC(=O)[C@H](Cc1ccc(O)cc1)NC(=O)[C@@H](NC(=O)[C@H](CCCNC(=N)N)NC(=O)[C@@H](N)CC(=O)O)C(C)C)C(=O)N[C@@H](Cc1cnc[nH]1)C(=O)N1CCC[C@H]1C(=O)N[C@@H](Cc1ccccc1)C(=O)O [Angiotensin II] | IC50 | > 10 µM

Request the reported IC50 associated with CSCC[C@H](NC(=O)[C@H](CC(C)C)NC(=O)CNC(=O)[C@H](Cc1ccccc1)NC(=O)[C@H](Cc1ccccc1)NC(=O)[C@H](CCC(N)=O)NC(=O)[C@H](CCC(N)=O)NC(=O)[C@@H]1CCCN1C(=O)[C@H](CCCCN)NC(=O)[C@@H]1CCCN1C(=O)[C@@H](N)CCCN=C(N)N)C(N)=O [Substance P] > 10 µM
